biological target: Histone deacetylase 8 (Homo sapiens); experiment: Inhibition of HDAC8 (unknown origin) using R-H-K(Ac)-K(Ac)-AFC as fluoregenic substrate by fluorescence based analysis
Sequence (Q9BY41 whole entry): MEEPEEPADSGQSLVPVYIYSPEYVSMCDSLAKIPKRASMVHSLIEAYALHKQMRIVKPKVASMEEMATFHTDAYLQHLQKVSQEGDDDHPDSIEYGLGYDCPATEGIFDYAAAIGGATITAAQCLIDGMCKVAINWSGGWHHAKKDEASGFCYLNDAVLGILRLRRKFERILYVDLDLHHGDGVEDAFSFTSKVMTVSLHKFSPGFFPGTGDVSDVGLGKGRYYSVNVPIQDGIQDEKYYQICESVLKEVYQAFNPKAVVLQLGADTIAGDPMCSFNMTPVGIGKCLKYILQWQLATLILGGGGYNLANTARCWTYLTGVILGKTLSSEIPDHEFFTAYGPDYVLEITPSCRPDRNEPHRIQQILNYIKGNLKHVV
# Lookup of reported IC50 keyed by entry
// note: answer is a bare numeric in nM

{"test.smiles": "O=C(CCCCCN1C(=O)c2ccccc2NC(=O)c2cc3ccccc3cc21)NO", "IC50 / nM": 183}
{"test.smiles": "O=C(CCCCCN1C(=O)c2ccccc2NC(=O)c2ccccc21)NO", "IC50 / nM": 183}

# context switch: different compound, same IC50
The compound listed as O=C(CCCCCN1C(=O)c2ccccc2/C=C\c2ccccc21)NO has a reported IC50 of 183
